Provide the recorded FICI for the entries that follow.
System: Candida albicans
experimental.details: checkerboard drug interaction (FICI, MICc);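 also: antifungal plus FPPS inhibitor combinations on Candida albicans tested by a simplified diagonal checkerboard screen, with FICI calculated under the Loewe additivity model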
Assay type: cell-based
recorded.conditions: C. albicans; FLC:INH combination

Any idea what its FICI is? The compound is CCCCCCCCCCCN1CCC[C@H]1C(=O)N[C@@H](CC(=O)OC)C(=O)OC
1.25

Any idea what its FICI is? The compound is CCCCCCCCCCCCN1CCC[C@H]1C(=O)N[C@@H](CC(=O)OC)C(=O)OC
1.06

Any idea what its FICI is? The compound is CCCCCCCCCCCN1CCC[C@H]1C(=O)N[C@@H](CC(=O)O)C(=O)O
≥4

Any idea what its FICI is? The compound is CCCCCCCCCCCN1CCC[C@H]1C(=O)N[C@H](CC(=O)OC)C(=O)OC
1.06

Any idea what its FICI is? The compound is CCCCCCCCCN1CCC[C@H]1C(=O)N[C@H](CC(=O)OC)C(=O)OC
≥4

Any idea what its FICI is? The compound is CCCCCCCCCN1CCC[C@H]1C(=O)N[C@@H](CC(=O)O)C(=O)O
≥4

Any idea what its FICI is? The compound is CCCCCCCCCCN1CCC[C@H]1C(=O)N[C@@H](CC(=O)OC)C(=O)OC
1.5

Any idea what its FICI is? The compound is CCCCCCCCCCCCN1CCC[C@H]1C(=O)N[C@H](CC(=O)O)C(=O)O
2.06

Any idea what its FICI is? The compound is CCCCCCCCCN1CCC[C@H]1C(=O)N[C@@H](CC(=O)OC)C(=O)OC
2.13

* * *

System: Cryptococcus deuterogattii
experimental.details: checkerboard drug interaction (FICI, MICc);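 also: simplified diagonal checkerboard screen pairing antifungal drugs with FPPS inhibitors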
Type: cell-based
recorded.conditions: C. deuterogattii; ITR:INH combination; fold decrease of inhibitor MIC
If the reported INH FD (MIC-MICc fold decrease) equals or exceeds 2, assign yes (1). If not, assign no (0).

Tell me whether INH FD (MIC-MICc fold decrease) is at least 2 here: CCCCCCCCCN1CCC[C@H]1C(=O)N[C@H](CC(=O)O)C(=O)O
no (0)

Tell me whether INH FD (MIC-MICc fold decrease) is at least 2 here: CCCCCCCCCCN1CCC[C@H]1C(=O)N[C@@H](CC(=O)OC)C(=O)OC
yes (1)

Tell me whether INH FD (MIC-MICc fold decrease) is at least 2 here: CCCCCCCCCCN1CCC[C@H]1C(=O)N[C@H](CC(=O)OC)C(=O)OC
no (0)

Tell me whether INH FD (MIC-MICc fold decrease) is at least 2 here: CCCCCCCCCN1CCC[C@H]1C(=O)N[C@@H](CC(=O)O)C(=O)O
no (0)

Tell me whether INH FD (MIC-MICc fold decrease) is at least 2 here: O=P(O)(O)C(O)(Cn1ccnc1)P(=O)(O)O [ZOL, zoledronate]
yes (1)

Tell me whether INH FD (MIC-MICc fold decrease) is at least 2 here: CCCCCCCCCN1CCC[C@H]1C(=O)N[C@@H](CC(=O)OC)C(=O)OC
no (0)

Tell me whether INH FD (MIC-MICc fold decrease) is at least 2 here: CCCCCCCCCN1CCC[C@H]1C(=O)N[C@H](CC(=O)OC)C(=O)OC
yes (1)

Tell me whether INH FD (MIC-MICc fold decrease) is at least 2 here: CCCCCCCCCCCN1CCC[C@H]1C(=O)N[C@H](CC(=O)O)C(=O)O
no (0)

Tell me whether INH FD (MIC-MICc fold decrease) is at least 2 here: CCCCCCCCCCCN1CCC[C@H]1C(=O)N[C@@H](CC(=O)OC)C(=O)OC
no (0)

Tell me whether INH FD (MIC-MICc fold decrease) is at least 2 here: CCCCCCCCCCCCN1CCC[C@H]1C(=O)N[C@H](CC(=O)OC)C(=O)OC
yes (1)

Tell me whether INH FD (MIC-MICc fold decrease) is at least 2 here: CCCCCCCCCCCCN1CCC[C@H]1C(=O)N[C@@H](CC(=O)OC)C(=O)OC
yes (1)

Tell me whether INH FD (MIC-MICc fold decrease) is at least 2 here: CCCCCCCCCCCN1CCC[C@H]1C(=O)N[C@H](CC(=O)OC)C(=O)OC
no (0)
